experiment.summary: Inhibition of porcine brain tubulin polymerization incubated for 30 mins followed by cooling on ice for 10 mins and measured by UV spectrometer assay
Format: tissue-based, Sus scrofa
Kindly supply the reported IC50 values for the records listed here.
Write it as a number; the unit nM goes unstated.

Prompt: // IC50 lookup, key: CCn1c(CO)cc2cc(N(C)c3nc(C)nc4ccccc34)ccc21
Completion: 1900

Prompt: // IC50 lookup, key: C=C(c1cc(OC)c(OC)c(OC)c1)c1ccc2c(c1)cc(CO)n2CC
Completion: 2900

----------
experiment.summary: Metabolic stability in rat liver microsomes assessed as half life measured after 96 hrs by HPLC-MS/MS analysis
Assay type: ADME, Microsome
observed.property: half-life (h)
Write it as a number; the unit h goes unstated.

Prompt: // half-life lookup, key: C=C(c1cc(OC)c(OC)c(OC)c1)c1ccc2c(c1)cc(CO)n2CC
Completion: 70

Prompt: // half-life lookup, key: C=C(c1ccc(OC)c(O)c1)c1cc(OC)c(OC)c(OC)c1
Completion: 18

Prompt: // half-life lookup, key: CCn1c(CO)cc2cc(N(C)c3nc(C)nc4ccccc34)ccc21
Completion: 140

----------
experiment.summary: Metabolic stability in human liver microsomes assessed as half life measured after 96 hrs by HPLC-MS/MS analysis
Assay type: ADME, Microsome
observed.property: half-life (h)
Write it as a number; the unit h goes unstated.

Prompt: // half-life lookup, key: C=C(c1ccc(OC)c(O)c1)c1cc(OC)c(OC)c(OC)c1
Completion: 30

Prompt: // half-life lookup, key: C=C(c1cc(OC)c(OC)c(OC)c1)c1ccc2c(c1)cc(CO)n2CC
Completion: 89

Prompt: // half-life lookup, key: CCn1c(CO)cc2cc(N(C)c3nc(C)nc4ccccc34)ccc21
Completion: 145

src = ChEMBL document CHEMBL5055628
